Values compiled from patent US10214519B2.

Molecular target: PI3Kβ (Homo sapiens (Human), UniProt P42338)
Sequence (P42338 whole entry, canonical isoform): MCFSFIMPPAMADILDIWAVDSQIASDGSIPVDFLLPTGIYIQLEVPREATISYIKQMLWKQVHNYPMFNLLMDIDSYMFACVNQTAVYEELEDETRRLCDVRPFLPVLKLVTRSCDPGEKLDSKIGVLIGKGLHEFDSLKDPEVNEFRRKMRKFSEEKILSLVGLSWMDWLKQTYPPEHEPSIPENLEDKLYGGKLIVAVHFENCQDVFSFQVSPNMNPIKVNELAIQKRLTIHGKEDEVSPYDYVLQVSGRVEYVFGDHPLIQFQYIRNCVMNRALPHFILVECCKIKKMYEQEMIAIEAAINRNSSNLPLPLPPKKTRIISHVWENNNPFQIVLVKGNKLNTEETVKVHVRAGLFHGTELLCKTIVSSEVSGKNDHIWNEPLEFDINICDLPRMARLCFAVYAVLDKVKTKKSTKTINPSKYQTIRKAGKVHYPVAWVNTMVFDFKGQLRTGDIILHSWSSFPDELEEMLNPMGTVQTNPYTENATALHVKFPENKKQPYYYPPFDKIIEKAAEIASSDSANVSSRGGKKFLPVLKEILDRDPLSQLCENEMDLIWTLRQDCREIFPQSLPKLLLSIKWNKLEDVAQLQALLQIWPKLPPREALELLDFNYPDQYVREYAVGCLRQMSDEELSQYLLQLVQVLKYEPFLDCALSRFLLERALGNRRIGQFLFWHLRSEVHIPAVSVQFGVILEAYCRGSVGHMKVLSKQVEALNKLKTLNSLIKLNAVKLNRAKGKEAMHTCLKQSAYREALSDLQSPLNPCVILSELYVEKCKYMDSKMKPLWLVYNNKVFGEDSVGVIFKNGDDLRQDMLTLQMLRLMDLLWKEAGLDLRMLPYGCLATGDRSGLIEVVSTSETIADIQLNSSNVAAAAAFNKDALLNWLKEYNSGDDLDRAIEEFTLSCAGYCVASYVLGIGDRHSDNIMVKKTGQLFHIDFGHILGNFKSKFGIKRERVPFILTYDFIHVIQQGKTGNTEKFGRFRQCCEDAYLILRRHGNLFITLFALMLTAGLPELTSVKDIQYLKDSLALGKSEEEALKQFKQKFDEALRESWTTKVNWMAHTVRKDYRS
Sequence (P27986 whole entry partner, canonical isoform): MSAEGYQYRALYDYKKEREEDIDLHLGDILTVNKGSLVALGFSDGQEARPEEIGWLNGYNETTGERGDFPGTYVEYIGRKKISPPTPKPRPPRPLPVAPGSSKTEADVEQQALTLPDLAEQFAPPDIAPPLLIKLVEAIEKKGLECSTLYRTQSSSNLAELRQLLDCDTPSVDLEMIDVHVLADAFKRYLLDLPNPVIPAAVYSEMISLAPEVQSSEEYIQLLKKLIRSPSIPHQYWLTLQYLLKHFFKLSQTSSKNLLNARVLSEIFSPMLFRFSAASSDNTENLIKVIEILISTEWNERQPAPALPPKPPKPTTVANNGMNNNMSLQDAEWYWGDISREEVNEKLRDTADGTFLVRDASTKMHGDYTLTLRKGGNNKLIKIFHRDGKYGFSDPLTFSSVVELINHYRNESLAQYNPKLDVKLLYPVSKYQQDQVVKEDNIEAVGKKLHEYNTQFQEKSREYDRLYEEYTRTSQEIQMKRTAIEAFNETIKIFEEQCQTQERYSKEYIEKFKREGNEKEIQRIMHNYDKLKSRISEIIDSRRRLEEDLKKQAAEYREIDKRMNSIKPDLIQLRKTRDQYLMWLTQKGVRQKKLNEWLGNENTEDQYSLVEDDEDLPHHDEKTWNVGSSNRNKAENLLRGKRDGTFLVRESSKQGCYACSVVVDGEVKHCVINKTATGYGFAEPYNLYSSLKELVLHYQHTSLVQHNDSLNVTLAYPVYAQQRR
Test: PI3K isoform TR-FRET enzymatic assay (PI3Kβ)
Settings: 2× Km ATP, 30 minutes at 25° C.
Description: The compounds of formula (I) were characterized for their enzymatic activity against the PI3K isoforms. The activities were measured using a time-resolved fluorescence resonance energy transfer (TR-FRET) assay. TR-FRET monitored the formation of 3,4,5-inositol triphosphate molecule that competed with fluorescently labeled PIP3 for binding to the GRP-1 pleckstrin homology domain protein. Class I PI3K isoforms were expressed and purified as heterodimeric recombinant proteins. […]
readout_kind: pIC50
Please note pIC50 is a logarithmic value: minus log10 of concentration in mol/L. Answer with that number alone.

Worked cases, pIC50 given:
Fc1ccc(F)c2c(-n3cnc4c(-c5cnc[nH]5)cc(N5CCOCC5)cc43)ccnc12: 8.30
Cc1nc2c(-c3nnc[nH]3)cc(N3CCOCC3)cc2n1-c1ccnc2c(F)c(F)ccc12 (atropisomer, axis not shown) [Compound 353]: 6.57
CCc1nc2c(-c3c[nH]cn3)cc(N3CCOCC3)cc2n1-c1ccnc2c(Cl)cccc12: 8.15

Okay, now this compound:
Short answer for Clc1cccc2c(-n3c(-c4ccn[nH]4)nc4c(-c5nnc[nH]5)cc(N5CCOCC5)cc43)ccnc12 : pIC50 was 7.82

* * *

target: PI3Kβ (Homo sapiens (Human)); test: PI3K isoform TR-FRET enzymatic assay (PI3Kβ); format: biochemical; conditions: 2× Km ATP, 30 minutes at 25° C.
Recorded IC50 values for a group of compounds are listed next.
The reply should contain only the number, in nM.

Worked cases, IC50 given:
CCc1nc2c(-c3ncc[nH]3)cc(N3CCOCC3)cc2n1-c1ccnc2c(F)ccc(F)c12 [Example 387]: 13
CCCc1nc2c(-c3cnc(C)[nH]3)cc(N3CCOCC3)cc2n1-c1ccnc2c(Cl)cccc12: 34
Cc1nc2c(-c3nnc(Cl)[nH]3)cc(N3CCOCC3)cc2n1-c1ccnc2c(Cl)cccc12 (atropisomer, axis not shown) [Compound 359]: 1200

Okay, now this compound:
Short answer for Cc1nc2c(-c3cnc(Cl)[nH]3)cc(N3CCOCC3)cc2n1-c1ccnc2cc(F)ccc12 : IC50 was 38

* * *

Target: PI3Kβ (Homo sapiens (Human), UniProt P42338)
Assay: PI3K isoform TR-FRET enzymatic assay (PI3Kβ)
Settings: 2× Km ATP, 30 minutes at 25° C.
Description: The compounds of formula (I) were characterized for their enzymatic activity against the PI3K isoforms. The activities were measured using a time-resolved fluorescence resonance energy transfer (TR-FRET) assay. TR-FRET monitored the formation of 3,4,5-inositol triphosphate molecule that competed with fluorescently labeled PIP3 for binding to the GRP-1 pleckstrin homology domain protein. Class I PI3K isoforms were expressed and purified as heterodimeric recombinant proteins. […]
readout_kind: IC50 (nM)
The reply should contain only the number, in nM.

Worked cases, IC50 given:
Cc1cc(-n2c(C)nc3c(-c4cnc(Cl)[nH]4)cc(N4CCOCC4)cc32)c2cccc(F)c2n1: 25
CCc1nc2c(-c3nnc[nH]3)cc(N3CCOCC3)cc2n1-c1ccnc2ccccc12: 29
Cc1nnc(-c2cc(N3CCOCC3)cc3c2nc(C)n3-c2c(Cl)cnc3c(Cl)cccc23)[nH]1 (atropisomer, axis not shown) [Compound 367]: 5600

Okay, now this compound:
Short answer for Cc1nc2c(-c3nnc[nH]3)cc(N3CCOCC3)c(F)c2n1-c1ccnc2c(Cl)ccc(F)c12 : IC50 was 27

* * *

biological target: PI3Kβ (Homo sapiens (Human), UniProt P42338); experiment: PI3K isoform TR-FRET enzymatic assay (PI3Kβ); conditions: 2× Km ATP, 30 minutes at 25° C.
pIC50: −log10 of the molar value.
Decide by pIC50: equal to or exceeding 8 means Fulfilled, less means Not fulfilled.

Answered cases to consult:
CCc1nc2c(-c3cnc[nH]3)cc(N3CCOCC3)cc2n1-c1cc(C)nc2c(Cl)ccc(Cl)c12: Not fulfilled
Clc1cccc2c(-n3c(-c4cncs4)nc4c(-c5nnc[nH]5)cc(N5CCOCC5)cc43)ccnc12: Not fulfilled
CCCc1nc2c(-c3nnc(C)[nH]3)cc(N3CCOCC3)cc2n1-c1ccnc2c(F)ccc(F)c12: Not fulfilled
CCc1nc2c(-c3nnc(Cl)[nH]3)cc(N3CCOCC3)cc2n1-c1ccnc2c(F)ccc(F)c12: Not fulfilled
Cc1nc2c(-c3nnc[nH]3)cc(N3CCOCC3)cc2n1-c1ccnc2c(F)ccc(Cl)c12 (atropisomer, axis not shown) [Compound 344]: Fulfilled

# check: pIC50 of Cc1nnc(-c2cc(N3CCOCC3)cc3c2nc(C)n3-c2ccnc3cccc(C)c23)[nH]1 is greater than or equal to 8 Not fulfilled

# check: pIC50 of Clc1cccc2c(-n3cnc4c(-c5c[nH]cn5)cc(N5CCOCC5)cc43)ccnc12 is greater than or equal to 8 Fulfilled

# check: pIC50 of CCc1nc2c(-c3ncco3)cc(N3CCOCC3)cc2n1-c1ccnc2c(Cl)cccc12 is greater than or equal to 8 Fulfilled

* * *

biological target: PI3Kβ (Homo sapiens (Human), UniProt P42338); test: PI3K isoform TR-FRET enzymatic assay (PI3Kβ); conditions: 2× Km ATP, 30 minutes at 25° C.
Recorded pIC50 values for a group of compounds are listed next.
Please note pIC50 is a logarithmic value: minus log10 of concentration in mol/L. Answer with that number alone.

Worked cases, pIC50 given:
Fc1ccc(Cl)c2c(-n3cnc4c(-c5nnc[nH]5)cc(N5CCOCC5)cc43)ccnc12: 7.62
Clc1cccc2c(-n3c(CC4CC4)nc4c(-c5nnc[nH]5)cc(N5CCOCC5)cc43)ccnc12: 8.05
Cc1cnc(-c2cc(N3CCOCC3)cc3c2nc(C)n3-c2ccnc3c(Cl)cccc23)s1: 6.20
Fc1ccc(F)c2c(-n3cnc4c(-c5cnc(C(F)(F)F)[nH]5)cc(N5CCOCC5)cc43)ccnc12: 6.08

The measured pIC50 that Cc1nc2c(-c3nnc[nH]3)cc(N3CCOCC3)cc2n1-c1cc(N2CCNCC2)nc2ccccc12 [Example 168, 2,2,2-trifluoroacetate] showed for PI3Kβ (Homo sapiens (Human), UniProt P42338) is 8.05

The measured pIC50 that Cc1nnc(-c2cc(N3CCOCC3)cc3c2nc(CC(C)C)n3-c2ccnc3c(Cl)cccc23)[nH]1 showed for PI3Kβ (Homo sapiens (Human), UniProt P42338) is 7.62

The measured pIC50 that Cc1nc2c(-c3nnc[nH]3)cc(N3CCOCC3)cc2n1-c1cc(C(F)(F)F)nc2c(Cl)cccc12 showed for PI3Kβ (Homo sapiens (Human), UniProt P42338) is 7.21

* * *

molecular target: PI3Kβ (Homo sapiens (Human)); test: PI3K isoform TR-FRET enzymatic assay (PI3Kβ); settings: 2× Km ATP, 30 minutes at 25° C.
pIC50: −log10 of the molar value.
Decide by pIC50: equal to or exceeding 7 means Yes, less means No.

Answered cases to consult:
Cc1nc2c(-c3nnc[nH]3)cc(N3CCOCC3)cc2n1-c1cc(-c2cn[nH]c2)nc2ccccc12 [Example 167, 2,2,2-trifluoroacetate]: Yes
Cc1nc(-c2cc(N3CCOCC3)cc3c2nc(C)n3-c2ccnc3c(Cl)cccc23)sc1C: No
Cc1nc2c(-c3cnc(Cl)[nH]3)cc(N3CCOCC3)cc2n1-c1ccnc2ccccc12: No

# check: pIC50 of Cc1nnc(-c2cc(N3CCOCC3)cc3c2nc(C2CCCO2)n3-c2ccnc3c(Cl)cccc23)[nH]1 (stereo not shown) is greater than or equal to 7 Yes

# check: pIC50 of CCCc1nc2c(-c3nnc[nH]3)cc(N3CCOCC3)cc2n1-c1ccnc2c(Cl)ccc(F)c12 is greater than or equal to 7 Yes

# check: pIC50 of CCc1c(C)nc2ccccc2c1-n1cnc2c(-c3nc(C)n[nH]3)cc(N3CCOCC3)cc21 is greater than or equal to 7 Yes

* * *

molecular target: PI3Kβ (Homo sapiens (Human), UniProt P42338); test: PI3K isoform TR-FRET enzymatic assay (PI3Kβ); conditions: 2× Km ATP, 30 minutes at 25° C.
pIC50: −log10 of the molar value.
Decide by pIC50: equal to or exceeding 8 means met, less means not met.

Answered cases to consult:
c1ccc2c(-n3cnc4c(-c5nnc[nH]5)cc(N5CCOCC5)cc43)cc(-c3cn[nH]c3)nc2c1: not met
Cc1nnc(-c2cc(N3CCOCC3)cc3c2nc(C)n3-c2ccnc3ccccc23)[nH]1: not met
Fc1ccc(F)c2c(-n3c(C4CC4)nc4c(-c5cnc(Cl)[nH]5)cc(N5CCOCC5)cc43)ccnc12 (atropisomer, axis not shown) [Compound 343]: met

# check: pIC50 of Cc1nc2c(-c3nnc(C4CC4)[nH]3)cc(N3CCOCC3)cc2n1-c1ccnc2c(Cl)cccc12 is greater than or equal to 8 not met

# check: pIC50 of Cc1nc2c(-c3n[nH]c(=O)o3)cc(N3CCOCC3)cc2n1-c1ccnc2cc(F)ccc12 is greater than or equal to 8 not met
